# measurementTarget: T1, NPNA8 peptide (Plasmodium falciparum (isolate 3D7)., not fully specified)
# T1 construct: source: synthetic peptide (InnoPep Inc)
# T1 chain: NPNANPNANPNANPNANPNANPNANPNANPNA
# protocolDescription: BLI
# protocolConditions: both partners purified
What kon was measured for each of the following?
One number for each entry, in M⁻¹ s⁻¹.

Batch of 3 binders: report kon for each.
1. 337 Fab (Fab, V domains shown, also called mAb 337; source: ExpiCHO cells, purified (mAb Select PrismA or Capture Select, SEC)) VH: QVQLVESGGGVVQPGRSLRLSCAASGFSFSTYGMHWVRQAPGKGLEWVALIWHDGSKKFYSESVRGRFTISRDNSMDTLYLQMSSLRAEDTAVYYCARDGADYFDSTGGAFDIWGQGTMVIVSS VL: EIVMTQSPATLSVSPGERATLSCRASQSVSSNLAWYQQKPGQAPRLLIYGASTRATGIPARFSGSGSGTEFTLTISSLQSEDFATYYCQQYKTWWTFGQGTKVEIK
2. 227 Fab (Fab, V domains shown, also called mAb 227; source: ExpiCHO cells, purified (mAb Select PrismA or Capture Select, SEC)) VH: QVQLVQSGGGVVQPGRSLRLSCVTSGFTFPAFGMHWVRQAPGKGLEWVAVIWYDGSKKYYADSVRGRFTISRDNSRNTLYLQMHSLRAEDTAVYYCARVKNYESSGYSQCLDYWGQGVLVTVAS VL: QSVLTQPPSVSGAPGQRVTISCTGSSSNIGAGYDVHWYQQLPGTAPKLLIYGNGNRPSGVPDRFSGSKSGTSVSLAITGLQAEDEADYYCQSYDSSLSAFVFGTGTKVTVL
3. 356 Fab (Fab, V domains shown, also called mAb 356; source: ExpiCHO cells, purified (mAb Select PrismA or Capture Select, SEC)) VH: QVQLVESGGGVVQPGRSLRLSCAASGFTFRNFGMHWVRQTPGKGLEWVAVIWHDGSNKFYADSVEGRFTISRDNSKNMIYLQMNSLRVEDTAIYYCARDSLFYDHDNSGYYGYWGQGTLVTVSS VL: QIVMTQSPATVSVSPGERATLSCRASRSVTSKLAWYQQKPGQAPRLLIYGASTRATGIPARFSGSGSGTEFTLTISSLQSEDFAVYFCQQYNNGFTFGPGTKVDFK

Solution:
66000
40000
87000
